details: in n-propanol, 308.2 K

[
  {
    "molecule": "CC(=O)N1CCN(c2ccc(OC[C@@H]3CO[C@@](Cn4ccnc4)(c4ccc(Cl)cc4Cl)O3)cc2)CC1 (racemic)",
    "solubility (mole fraction)": 0.0128
  }
]

====

settings: in n-propanol, 313.2 K

[
  {
    "compound": "CC(=O)N1CCN(c2ccc(OC[C@@H]3CO[C@@](Cn4ccnc4)(c4ccc(Cl)cc4Cl)O3)cc2)CC1 (racemic)",
    "solubility (mole fraction)": 0.0175
  }
]

====

conditions: in water, 303.2 K

[
  {
    "compound": "CC(=O)N1CCN(c2ccc(OC[C@@H]3CO[C@@](Cn4ccnc4)(c4ccc(Cl)cc4Cl)O3)cc2)CC1 (racemic)",
    "solubility (mole fraction)": "4.46e-07"
  }
]

====

conditions: in n-propanol, 293.2 K
measure: solubility (mole fraction)

[
  {
    "compound": "CC(=O)N1CCN(c2ccc(OC[C@@H]3CO[C@@](Cn4ccnc4)(c4ccc(Cl)cc4Cl)O3)cc2)CC1 (racemic)",
    "number": 0.0056
  }
]
